Origin of values: ChEMBL document CHEMBL3885861

Organism: Rattus norvegicus
Assay: Open TG-GATES - Regimen: Single
Assay type: toxicity, organism-based, Sprague-Dawley
Design: regimen Single, gender Male, age 6 weeks
Conditions: in vivo, po, 0 mg/kg, 9 h, tissue Plasma, route gavage, dose level Control
reported property: DBIL
Phrase the answer as number then unit, nothing more needed.

Give me DBIL for each of these molecules, listed below.
1. NC1=NC(=O)C(c2ccccc2)O1 (stereo not given)
2. CS(=O)(=O)O.Cc1ccc(NC(=O)c2ccc(CN3CCN(C)CC3)cc2)cc1Nc1nccc(-c2cccnc2)n1 [IMATINIB MESYLATE]
3. Cc1nnc2n1-c1ccc(Cl)cc1C(c1ccccc1Cl)=NC2
4. COC(=O)C1=C(C)NC(C)=C(C(=O)OC)C1c1ccccc1[N+](=O)[O-]
5. CNC(=C[N+](=O)[O-])NCCSCc1ccc(CN(C)C)o1
6. CCOc1ccc(NC(C)=O)cc1
7. CN1C(=O)CCS(=O)(=O)C1c1ccc(Cl)cc1 (stereo not given)
8. Brc1ccccc1

["0.01 mg/dL", "0.01 mg/dL", "0.008 mg/dL", "0.002 mg/dL", "0.066 mg/dL", "0.002 mg/dL", "0.022 mg/dL", "0.006 mg/dL"]

Give me DBIL for each of these molecules, listed below.
1. O=C(OC[C@H]1O[C@@H](OC(=O)c2cc(O)c(O)c(OC(=O)c3cc(O)c(O)c(O)c3)c2)[C@H](OC(=O)c2cc(O)c(O)c(OC(=O)c3cc(O)c(O)c(O)c3)c2)[C@@H](OC(=O)c2cc(O)c(O)c(OC(=O)c3cc(O)c(O)c(O)c3)c2)[C@@H]1OC(=O)c1cc(O)c(O)c(OC(=O)c2cc(O)c(O)c(O)c2)c1)c1cc(O)c(O)c(OC(=O)c2cc(O)c(O)c(O)c2)c1
2. CN(C)CCC(c1ccc(Cl)cc1)c1ccccn1 (stereo not given)

0.062 mg/dL
0.008 mg/dL
